Cited source: patent US20260234242A1

Target: T1, his-tagged human CDH6 extracellular region protein (hCDH6 ECD-his) (human, UniProt P55285 19-615)
T1 construct: also called Human CDH6-his; hCDH6-his; not shown: his tag
T1 sequence: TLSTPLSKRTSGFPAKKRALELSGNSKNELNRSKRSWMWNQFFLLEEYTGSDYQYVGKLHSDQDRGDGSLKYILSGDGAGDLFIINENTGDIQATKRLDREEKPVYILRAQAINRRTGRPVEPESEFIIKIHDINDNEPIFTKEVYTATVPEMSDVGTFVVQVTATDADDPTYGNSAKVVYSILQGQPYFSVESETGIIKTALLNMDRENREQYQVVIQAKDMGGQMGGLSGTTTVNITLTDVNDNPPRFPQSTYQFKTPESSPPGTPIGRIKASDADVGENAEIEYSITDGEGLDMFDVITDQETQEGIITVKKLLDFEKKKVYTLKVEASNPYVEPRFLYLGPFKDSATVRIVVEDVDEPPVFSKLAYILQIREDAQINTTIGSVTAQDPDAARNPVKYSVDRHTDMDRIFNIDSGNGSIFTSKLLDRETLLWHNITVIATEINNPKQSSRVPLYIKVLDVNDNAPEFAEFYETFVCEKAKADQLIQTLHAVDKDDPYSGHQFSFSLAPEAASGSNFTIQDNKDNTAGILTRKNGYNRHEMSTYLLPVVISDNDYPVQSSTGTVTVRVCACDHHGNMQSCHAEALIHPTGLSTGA
Assay: ELISA, coated antigen
MEASUREMENT_NAME: Max OD450 (OD450)

* hCDH6-14-H3L1 (antibody, V domains shown, Humanized) VH: EIQLVQSGAEVKKPGASVKVSCKASGYTFTDNYINWVRQAPGQRLEWMGWIYPGTGNSYYNEKFKGRVTLTVDTSASTAYMELSSLRSEDTAVYYCASSYGDSFDYWGQGTTVTVSS VL: DIQMTQSPSSLSASVGDRVTITCRASQDIRNYLNWYQQKPGKAFKLLISYTSRLHSGVPSRFSGSGSGTDFTFTISSLQPEDIATYYCQQYSQLPWTFGGGTKVEIK | 2.62
* hCDH6-14-H4L3 (antibody, V domains shown, Humanized) VH: EVQLVQSGAEVKKPGASVKVSCKASGYTFTDNYINWVRQAPGQGLEWMGWIYPGTGNSYYNEKFKGRVTITVDTSASTAYMELSSLRSEDTAVYYCASSYGDSFDYWGQGTTVTVSS VL: DIVMTQSPDSLAVSLGERATINCRASQDIRNYLNWYQQKPGQTPKLLISYTSRLHSGVPDRFSGSGSGTDFTLTISSLQAEDVAVYYCQQYSQLPWTFGGGTKVEIK | 2.67
* hCDH6-1-H4L3 (antibody, V domains shown, Humanized) VH: EVQLVQSGAEVKKPGSSVKVSCKASGYTFTNYWMHWVRQRPGQGLEWMGDIDPSHSETHYTQKFKDRVTITVDKSTSTAYMELSSLRSEDTAVYYCARGDLGRFDYWGQGTTVTVSS VL: DIQMTQSPSSLSASVGDRVTITCRASESVSIHGTHLMHWYQQKPGKPPKLLIYAASNLESGVPSRFSGSGSETDFTFTISSLQPEDIATYYCQQSFEDPWTFGGGTKVEIK | 2.61
